Molecular target: TRIM33(PHD,BRD) (Homo sapiens)
Sequence (Q9UPN9 882-1087 limits assumed): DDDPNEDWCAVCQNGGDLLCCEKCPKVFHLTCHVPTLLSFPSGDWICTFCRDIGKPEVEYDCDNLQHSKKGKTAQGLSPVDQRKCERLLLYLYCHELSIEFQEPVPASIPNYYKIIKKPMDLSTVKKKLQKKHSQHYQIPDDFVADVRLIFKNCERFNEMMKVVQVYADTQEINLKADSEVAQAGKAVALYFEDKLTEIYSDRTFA
Test: BROMOscan ligand-binding assay
Conditions: KD, BROMOscan, TRIM33(PHD,Bromo.)
pKd: −log10 of the molar value.
Recorded Endpoint: pKd

Observed pKd, TRIM33(PHD,BRD) (Homo sapiens), COc1ccc(CCc2nc3cc(-c4c(C)noc4C)ccc3n2C[C@H](C)N2CCOCC2)cc1Cl : < 4.00

---

Molecular target: PRC2-EZH2 (Homo sapiens, UniProt Q15910)
Construct: purchased DiscoverX BROMOscan (bromodomains); SGC in-house methyltransferase panel
Sequence (Q15910 whole entry): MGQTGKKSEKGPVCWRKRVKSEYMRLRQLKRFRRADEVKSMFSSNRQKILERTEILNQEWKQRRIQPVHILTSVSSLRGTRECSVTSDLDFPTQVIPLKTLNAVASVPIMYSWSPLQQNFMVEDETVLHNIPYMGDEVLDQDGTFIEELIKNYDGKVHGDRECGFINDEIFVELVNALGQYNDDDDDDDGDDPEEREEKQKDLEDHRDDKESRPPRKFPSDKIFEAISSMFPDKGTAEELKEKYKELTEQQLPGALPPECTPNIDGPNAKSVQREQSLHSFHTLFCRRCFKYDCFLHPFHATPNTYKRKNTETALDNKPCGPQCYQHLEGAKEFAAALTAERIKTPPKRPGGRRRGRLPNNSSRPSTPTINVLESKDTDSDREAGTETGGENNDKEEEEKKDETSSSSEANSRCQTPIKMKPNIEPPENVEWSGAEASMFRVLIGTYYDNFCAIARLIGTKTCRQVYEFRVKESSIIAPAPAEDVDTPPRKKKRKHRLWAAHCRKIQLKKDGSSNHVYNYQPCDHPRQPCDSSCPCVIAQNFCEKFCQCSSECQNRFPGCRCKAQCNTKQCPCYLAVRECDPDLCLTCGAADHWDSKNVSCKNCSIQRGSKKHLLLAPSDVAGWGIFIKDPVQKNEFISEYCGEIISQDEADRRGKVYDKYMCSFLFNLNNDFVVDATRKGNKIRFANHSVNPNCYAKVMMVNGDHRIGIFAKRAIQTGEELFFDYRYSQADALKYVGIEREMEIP
Sequence (O75530 whole entry partner): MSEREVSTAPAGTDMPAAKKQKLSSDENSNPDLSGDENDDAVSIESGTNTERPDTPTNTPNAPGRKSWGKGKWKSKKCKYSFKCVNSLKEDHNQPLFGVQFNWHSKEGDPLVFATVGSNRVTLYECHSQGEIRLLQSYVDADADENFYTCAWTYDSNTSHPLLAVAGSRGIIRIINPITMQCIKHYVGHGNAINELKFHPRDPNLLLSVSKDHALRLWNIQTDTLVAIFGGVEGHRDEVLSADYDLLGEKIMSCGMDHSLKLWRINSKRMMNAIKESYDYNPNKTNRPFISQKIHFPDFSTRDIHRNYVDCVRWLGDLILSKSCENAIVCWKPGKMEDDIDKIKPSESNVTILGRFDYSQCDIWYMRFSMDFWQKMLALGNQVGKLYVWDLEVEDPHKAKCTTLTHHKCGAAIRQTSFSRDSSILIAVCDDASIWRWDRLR
Sequence (Q15022 whole entry partner): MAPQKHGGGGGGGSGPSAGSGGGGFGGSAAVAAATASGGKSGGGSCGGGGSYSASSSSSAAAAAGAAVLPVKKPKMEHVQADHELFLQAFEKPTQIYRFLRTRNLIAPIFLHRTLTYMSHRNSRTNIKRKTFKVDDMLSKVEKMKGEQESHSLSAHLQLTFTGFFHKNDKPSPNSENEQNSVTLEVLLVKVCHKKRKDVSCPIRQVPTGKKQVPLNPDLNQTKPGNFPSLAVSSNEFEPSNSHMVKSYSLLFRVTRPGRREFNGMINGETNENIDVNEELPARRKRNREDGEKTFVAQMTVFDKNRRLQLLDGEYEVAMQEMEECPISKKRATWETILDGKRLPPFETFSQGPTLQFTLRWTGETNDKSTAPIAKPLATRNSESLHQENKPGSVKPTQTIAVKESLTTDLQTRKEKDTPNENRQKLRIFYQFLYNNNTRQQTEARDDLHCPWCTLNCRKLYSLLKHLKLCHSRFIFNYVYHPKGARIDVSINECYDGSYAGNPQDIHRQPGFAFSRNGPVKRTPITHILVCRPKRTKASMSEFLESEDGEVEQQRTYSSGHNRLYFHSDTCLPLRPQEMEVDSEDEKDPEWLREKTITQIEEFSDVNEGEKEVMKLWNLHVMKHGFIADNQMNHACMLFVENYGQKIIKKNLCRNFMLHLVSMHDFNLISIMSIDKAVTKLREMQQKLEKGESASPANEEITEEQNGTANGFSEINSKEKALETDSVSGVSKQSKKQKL
Assay: Methyl transferase scintillation proximity assay
Type: biochemical
Conditions: average of two measurements, read-out: MTases Inhibition (%)
Recorded Endpoint: inhibition at 10 µM (%)
Return type: number; implicit unit %.

Input CN(C)CCCOc1ccc(-c2cc(NCCCn3cccn3)nc(S(C)(=O)=O)n2)cc1 [TP-238] . Output inhibition at 10 µM: 3

Input CN1C[C@H](Nc2cnn(C)c(=O)c2Br)C[C@H](c2ccccc2)C1 [GSK4027] . Output inhibition at 10 µM: -5

Input Cc1c(NC(=O)c2cc(C(N)=O)nc3cc(F)ccc23)c(C(F)(F)F)nn1Cc1ccc(C#N)cc1 [BAY-876] . Output inhibition at 10 µM: 5

Input CO[C@H]1CNC[C@@H](OCC2CCC(F)(F)CC2)[C@@H]1Nc1ncc(-c2cncc(C)c2)c2cc(C)c(=O)[nH]c12 [GSK8814] . Output inhibition at 10 µM: 2

Input Cc1c(NC(=O)c2cc(C(N)=O)nc3cc(F)ccc23)c(C(F)(F)F)nn1Cc1ccc(C(C)(C)C)cc1 [BAY-588] . Output inhibition at 10 µM: 3

Input Cc1nnc2c3ccccc3c(N[C@@H](C)[C@H](c3ccccc3)N(C)C)nn12 [L-Moses] . Output inhibition at 10 µM: -4

Input COc1cc(Cl)c(C(=O)N[C@@H](CN[C@H]2CC[C@@H](N)CC2)Cc2ccc(C#N)cc2)cc1-c1ccc(CN[C@H](C)c2ccc(C)cc2)o1 [BAY-850] . Output inhibition at 10 µM: 3

---

Target: GCN5L2 (Homo sapiens)
Assay: Histone acetyltransferase (HAT) activity assay;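 also: selectivity screen of BRD probe compounds across a panel of histone acetyltransferases, HAT activity in % with compound at 1 or 10 µM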
Assay type: biochemical
Conditions: 1µM; read-out: HATs Activity (%)
Sequence (Q92830 whole entry, species assumed): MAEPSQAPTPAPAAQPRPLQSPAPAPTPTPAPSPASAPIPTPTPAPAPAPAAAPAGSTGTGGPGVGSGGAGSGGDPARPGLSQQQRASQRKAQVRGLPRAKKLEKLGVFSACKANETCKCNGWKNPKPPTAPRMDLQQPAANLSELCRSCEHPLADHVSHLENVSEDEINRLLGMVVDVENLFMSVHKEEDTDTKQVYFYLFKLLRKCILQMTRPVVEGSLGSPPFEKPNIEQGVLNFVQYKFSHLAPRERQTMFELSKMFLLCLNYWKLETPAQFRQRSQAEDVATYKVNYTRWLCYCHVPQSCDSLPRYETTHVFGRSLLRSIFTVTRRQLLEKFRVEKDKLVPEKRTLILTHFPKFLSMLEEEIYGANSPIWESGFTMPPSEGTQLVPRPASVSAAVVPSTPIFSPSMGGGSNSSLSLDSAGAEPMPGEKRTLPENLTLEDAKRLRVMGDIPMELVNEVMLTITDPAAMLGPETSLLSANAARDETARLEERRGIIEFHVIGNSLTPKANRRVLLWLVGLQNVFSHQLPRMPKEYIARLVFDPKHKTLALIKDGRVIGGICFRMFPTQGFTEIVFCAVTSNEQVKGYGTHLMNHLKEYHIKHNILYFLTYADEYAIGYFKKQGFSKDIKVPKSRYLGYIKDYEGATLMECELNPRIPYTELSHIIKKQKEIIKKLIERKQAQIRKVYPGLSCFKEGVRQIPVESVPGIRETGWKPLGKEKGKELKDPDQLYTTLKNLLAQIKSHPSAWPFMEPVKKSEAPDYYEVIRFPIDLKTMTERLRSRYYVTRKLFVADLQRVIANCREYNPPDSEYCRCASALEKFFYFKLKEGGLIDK
Recorded Endpoint: activity at 1 µM (%)
Return type: number; implicit unit %.

Observed activity at 1 µM, GCN5L2 (Homo sapiens), O=C(C=CN1CC2CC1CN2c1ccccn1)c1ccccc1O (centres unmarked) [PFI-3] : 99

Observed activity at 1 µM, GCN5L2 (Homo sapiens), Cc1c(NC(=O)c2cc(C(N)=O)nc3cc(F)ccc23)c(C(F)(F)F)nn1Cc1ccc(C#N)cc1 [BAY-876] : 100

Observed activity at 1 µM, GCN5L2 (Homo sapiens), CN(C)CCCOc1ccc(-c2cc(NCCCn3cccn3)nc(S(C)(=O)=O)n2)cc1 [TP-238] : 96

Observed activity at 1 µM, GCN5L2 (Homo sapiens), COc1cc(-c2cn(C)c(=O)c3cnccc23)c(OC)cc1CN(C)C [BI-9564] : 102

Observed activity at 1 µM, GCN5L2 (Homo sapiens), Cc1nnc2c3ccccc3c(N[C@@H](C)[C@H](c3ccccc3)N(C)C)nn12 [L-Moses] : 99

---

Target: BRD4(1) (Homo sapiens)
Assay: BROMOscan ligand-binding assay
Details: BROMOscan, BRD4(1)
For each of the compounds below, state its pKd.
The quantity pKd is defined as the negative base-10 logarithm of the molar concentration.

Input Cc1cc(=O)n(C)c2cc(N3C(=O)CC[C@H](NS(=O)(=O)CC(C)C)[C@H]3c3ccc(Cl)cc3)ccc12 . Output pKd: 4.34

Input O=C(C=CN1[C@H]2CC[C@@H]1c1ncnc(NC3CC3)c1C2)c1ccccc1O [PFI-3 D1] . Output pKd: 4.57

---

Target: BRD3(1) (Homo sapiens, UniProt Q15059)
Sequence (Q15059 34-140 limits assumed): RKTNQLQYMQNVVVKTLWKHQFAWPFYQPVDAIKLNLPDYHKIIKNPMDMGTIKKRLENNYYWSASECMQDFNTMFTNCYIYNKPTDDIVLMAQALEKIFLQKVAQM
Assay: BROMOscan ligand-binding assay
Settings: read-out: KD (BROMOscan); sheet prints no unit (nM)
Recorded Endpoint: Kd
Kindly report the value followed by its unit.

Input COc1cc(C#N)ccc1S(=O)(=O)Nc1ccc2c(c1)cc(C)c(=O)n2C [NIC57] . Output Kd: 7200 nM

---

Target: BRDT(1,2) (Homo sapiens)
Experiment: BROMOscan ligand-binding assay
Recorded Endpoint: pKd
The quantity pKd is defined as the negative base-10 logarithm of the molar concentration.

Input CCCS(=O)(=O)c1nc(NC2CC2)cc(-c2ccc3c(ccn3C3CC(C)(C)NC(C)(C)C3)c2)n1 [NVS-CECR2-1] . Output pKd: 4.85

---

Target: BRD3(2) (Homo sapiens)
Sequence (Q15059 306-415 limits assumed): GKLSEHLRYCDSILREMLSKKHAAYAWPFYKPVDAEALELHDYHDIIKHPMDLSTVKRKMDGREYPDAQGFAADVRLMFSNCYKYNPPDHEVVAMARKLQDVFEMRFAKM
Experiment: BROMOscan ligand-binding assay
Settings: KD, BRD3(2)
Recorded Endpoint: Kd

Input O=C(C=CN1CC2CC1CN2c1ccccn1)c1ccccc1O (stereo not shown) [PFI-3] . Output Kd: > 100 µM

---

Target: SMYD2 (Homo sapiens, UniProt Q9NRG4)
Construct: purchased DiscoverX BROMOscan (bromodomains); SGC in-house methyltransferase panel
Sequence (Q9NRG4 whole entry): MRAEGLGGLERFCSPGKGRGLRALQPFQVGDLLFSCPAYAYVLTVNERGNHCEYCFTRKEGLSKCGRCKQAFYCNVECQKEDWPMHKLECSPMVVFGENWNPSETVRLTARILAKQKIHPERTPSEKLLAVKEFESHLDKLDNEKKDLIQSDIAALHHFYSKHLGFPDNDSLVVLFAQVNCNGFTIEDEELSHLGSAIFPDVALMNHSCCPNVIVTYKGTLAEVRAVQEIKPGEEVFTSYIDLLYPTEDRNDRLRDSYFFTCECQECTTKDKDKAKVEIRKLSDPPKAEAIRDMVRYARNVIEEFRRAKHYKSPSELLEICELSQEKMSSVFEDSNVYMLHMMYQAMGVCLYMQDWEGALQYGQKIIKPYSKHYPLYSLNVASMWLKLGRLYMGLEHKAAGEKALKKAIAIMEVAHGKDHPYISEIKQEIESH
Assay: Methyl transferase scintillation proximity assay
Assay type: biochemical
Details: average of two measurements, read-out: MTases Inhibition (%)
Recorded Endpoint: inhibition at 10 µM
Kindly report the value followed by its unit.

Input CO[C@H]1CNC[C@@H](OCC2CCC(F)(F)CC2)[C@@H]1Nc1ncc(-c2cncc(C)c2)c2cc(C)c(=O)[nH]c12 [GSK8814] . Output inhibition at 10 µM: -2%

Input Cc1c(NC(=O)c2cc(C(N)=O)nc3cc(F)ccc23)c(C(F)(F)F)nn1Cc1ccc(C#N)cc1 [BAY-876] . Output inhibition at 10 µM: -10%

Input Cc1nnc2c3ccccc3c(N[C@@H](C)[C@H](c3ccccc3)N(C)C)nn12 [L-Moses] . Output inhibition at 10 µM: -10%

Input Cc1c(NC(=O)c2cc(C(N)=O)nc3cc(F)ccc23)c(C(F)(F)F)nn1Cc1ccc(C(C)(C)C)cc1 [BAY-588] . Output inhibition at 10 µM: 8%

Input CN(C)CCCOc1ccc(-c2cc(NCCCn3cccn3)nc(S(C)(=O)=O)n2)cc1 [TP-238] . Output inhibition at 10 µM: -2%

Input COc1cc(Cl)c(C(=O)N[C@@H](CN[C@H]2CC[C@@H](N)CC2)Cc2ccc(C#N)cc2)cc1-c1ccc(CN[C@H](C)c2ccc(C)cc2)o1 [BAY-850] . Output inhibition at 10 µM: 19%

Input CN1C[C@H](Nc2cnn(C)c(=O)c2Br)C[C@H](c2ccccc2)C1 [GSK4027] . Output inhibition at 10 µM: 2%

---

Biological target: TRIM24 (Homo sapiens, UniProt O15164)
Sequence (O15164 899-1004 limits assumed): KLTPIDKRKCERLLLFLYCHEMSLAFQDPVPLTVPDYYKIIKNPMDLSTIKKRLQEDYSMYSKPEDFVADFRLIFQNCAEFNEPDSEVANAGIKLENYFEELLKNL
Test: BROMOscan ligand-binding assay
Conditions: BROMOscan, TRIM24(Bromo.)
For each of the compounds below, state its Kd.

Input O=C(C=CN1[C@H]2CC[C@@H]1c1ncnc(NC3CC3)c1C2)c1ccccc1O [PFI-3 D1] . Output Kd: > 30 µM

Input Cc1cc(=O)n(C)c2cc(N3C(=O)CC[C@H](NS(=O)(=O)CC(C)C)[C@H]3c3ccc(Cl)cc3)ccc12 . Output Kd: > 50 µM

---

Molecular target: PRDM9 (Homo sapiens, UniProt Q9NQV7)
Construct: purchased DiscoverX BROMOscan (bromodomains); SGC in-house methyltransferase panel
Sequence (Q9NQV7 whole entry): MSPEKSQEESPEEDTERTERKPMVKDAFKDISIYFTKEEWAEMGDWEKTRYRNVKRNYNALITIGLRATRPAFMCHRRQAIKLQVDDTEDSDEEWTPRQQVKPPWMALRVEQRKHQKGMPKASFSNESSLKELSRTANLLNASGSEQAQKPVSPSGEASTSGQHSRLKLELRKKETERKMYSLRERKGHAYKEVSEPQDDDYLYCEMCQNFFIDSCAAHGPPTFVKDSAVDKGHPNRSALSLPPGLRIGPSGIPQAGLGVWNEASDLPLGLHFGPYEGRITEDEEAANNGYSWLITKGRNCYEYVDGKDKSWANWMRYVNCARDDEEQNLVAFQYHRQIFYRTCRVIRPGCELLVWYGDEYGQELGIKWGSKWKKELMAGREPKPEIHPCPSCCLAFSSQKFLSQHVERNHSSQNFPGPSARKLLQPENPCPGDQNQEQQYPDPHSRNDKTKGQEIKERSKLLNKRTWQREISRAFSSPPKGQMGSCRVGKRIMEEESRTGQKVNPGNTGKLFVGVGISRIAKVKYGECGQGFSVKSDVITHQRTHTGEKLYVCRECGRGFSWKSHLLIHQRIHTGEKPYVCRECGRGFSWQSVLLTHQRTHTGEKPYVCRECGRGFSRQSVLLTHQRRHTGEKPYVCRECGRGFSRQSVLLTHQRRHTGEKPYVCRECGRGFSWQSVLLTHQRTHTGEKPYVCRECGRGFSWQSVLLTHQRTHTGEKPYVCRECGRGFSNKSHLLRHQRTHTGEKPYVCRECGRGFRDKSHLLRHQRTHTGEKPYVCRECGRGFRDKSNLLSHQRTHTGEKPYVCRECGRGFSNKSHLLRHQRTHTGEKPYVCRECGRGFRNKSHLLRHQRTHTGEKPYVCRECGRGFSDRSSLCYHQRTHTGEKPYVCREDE
Assay: Methyl transferase scintillation proximity assay
Assay type: biochemical
Conditions: average of two measurements, read-out: MTases Inhibition (%)
Recorded Endpoint: inhibition at 10 µM (%)
Return type: number; implicit unit %.

Input Cc1nnc2c3ccccc3c(N[C@@H](C)[C@H](c3ccccc3)N(C)C)nn12 [L-Moses] . Output inhibition at 10 µM: 4

Input Cc1c(NC(=O)c2cc(C(N)=O)nc3cc(F)ccc23)c(C(F)(F)F)nn1Cc1ccc(C(C)(C)C)cc1 [BAY-588] . Output inhibition at 10 µM: 3

Input CO[C@H]1CNC[C@@H](OCC2CCC(F)(F)CC2)[C@@H]1Nc1ncc(-c2cncc(C)c2)c2cc(C)c(=O)[nH]c12 [GSK8814] . Output inhibition at 10 µM: 0

Input CN1C[C@H](Nc2cnn(C)c(=O)c2Br)C[C@H](c2ccccc2)C1 [GSK4027] . Output inhibition at 10 µM: 3

---

Biological target: GCN5L2 (Homo sapiens)
Experiment: BROMOscan ligand-binding assay
Conditions: KD, BROMOscan, GCN5L2
Sequence (Q92830 728-832 limits assumed): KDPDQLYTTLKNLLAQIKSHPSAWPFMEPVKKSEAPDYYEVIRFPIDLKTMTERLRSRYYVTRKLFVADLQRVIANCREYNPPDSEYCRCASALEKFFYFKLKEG
pKd: −log10 of the molar value.
Recorded Endpoint: pKd

Input COc1ccc(CCc2nc3cc(-c4c(C)noc4C)ccc3n2C[C@H](C)N2CCOCC2)cc1Cl . Output pKd: < 4.00

---

Target: UniProtKB Q9UIF9
Sequence (Q9UIF9 1793-1897 limits assumed): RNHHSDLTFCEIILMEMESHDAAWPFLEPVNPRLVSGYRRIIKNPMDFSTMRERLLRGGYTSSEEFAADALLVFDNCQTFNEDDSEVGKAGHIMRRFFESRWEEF
Assay: BROMOscan ligand-binding assay
Settings: BROMOscan, BAZ2A
Recorded Endpoint: Kd

Observed Kd, UniProtKB Q9UIF9, O=C(C=CN1[C@H]2CC[C@@H]1c1ncnc(NC3CC3)c1C2)c1ccccc1O [PFI-3 D1] : > 30 µM

These measurements were taken from paper PMC6478789.
